B1: PBXIP1 (parent)
chain: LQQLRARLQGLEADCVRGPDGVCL

# Variants of: B1
# Assay Procedure: protein stability index of a GFP-peptide fusion (GPS, HEK-293T) (PSI 1-6); higher = more stable;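 also: lentivirally expressed fusions sorted by FACS into six bins by GFP to DsRed ratio, PSI derived from sequencing read proportions per bin multiplied by bin number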
# Test Conditions: c terminus: a fixed tail appended
Quantity Kind: protein stability index

Input: Could you tell me which protein stability index is on file for V16F ?
Output: 2.28

Input: Could you tell me which protein stability index is on file for L1Y ?
Output: 2.22

Input: Could you tell me which protein stability index is on file for V22K ?
Output: 2.39

Input: Could you tell me which protein stability index is on file for D14R ?
Output: 2.93

Input: Could you tell me which protein stability index is on file for P19S ?
Output: 1

Input: Could you tell me which protein stability index is on file for Q2P ?
Output: 3.05

Input: Could you tell me which protein stability index is on file for L1T ?
Output: 3.66

Input: Could you tell me which protein stability index is on file for G21R ?
Output: 2.56

Input: Could you tell me which protein stability index is on file for C15D ?
Output: 2.65

Input: Could you tell me which protein stability index is on file for Q9H ?
Output: 2.42

Input: Could you tell me which protein stability index is on file for G10Q ?
Output: 2.53

Input: Could you tell me which protein stability index is on file for G18V ?
Output: 3.65

Input: Could you tell me which protein stability index is on file for L4Q ?
Output: 3.48

Input: Could you tell me which protein stability index is on file for C23H ?
Output: 2.66

Input: Could you tell me which protein stability index is on file for E12H ?
Output: 1.35

Input: Could you tell me which protein stability index is on file for L4T ?
Output: 3.18

Input: Could you tell me which protein stability index is on file for R7W ?
Output: 2.28

Input: Could you tell me which protein stability index is on file for L1H ?
Output: 3.85

Input: Could you tell me which protein stability index is on file for D20E ?
Output: 1.89

Input: Could you tell me which protein stability index is on file for L24T ?
Output: 1.74

Input: Could you tell me which protein stability index is on file for L8I ?
Output: 2.84

Input: Could you tell me which protein stability index is on file for Q3L ?
Output: 1.93
